# TESTED_TARGET: PDGF-BB (Homo sapiens, UniProt P01127 P01127:82-190)
# Sequence (P01127 82-190, one chain of several): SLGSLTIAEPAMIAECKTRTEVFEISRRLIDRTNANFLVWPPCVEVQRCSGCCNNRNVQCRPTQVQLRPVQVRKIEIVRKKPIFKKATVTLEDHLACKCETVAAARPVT
# MEASUREMENT_NOTES: cell_activity; slightly more efficient than 36t; thymidine incorporation
# MEASUREMENT_PARAMETERS: tags: R&D Systems, carrier-free, E. coli produced; chain copies: 2 (homodimer, inferred); label: 5'-32P; three-way helix junction
READOUT_NAME: IC50

Reported IC50 for TACTCAGGGCACTGCAAGCAATTGTGGTCCCAATGGGCTGAGTAT (ssDNA, 3'-3' linked inverted T at 3' end) [41t] was < 2.5 nM
